test system: THRa homodimer (NR concentration 90 nM); experiment: PBM binding z-score (relative to random genomic background probes); higher = stronger binding; sequences stand for … in GC…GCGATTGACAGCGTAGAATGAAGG
Reported PBM binding z-score values for the following sequences.

ordered_residues	PBM binding z-score
GTATCAAGGTGAATAGGTCGTTGATGAGTAGGCG	0.898
CCTTACGGGTCACTCCAGGTTATAGTATCGGAGT	0.63
CCTAGTTGGTCAATGTCACACACGCTATAGGTAC	0.635
TCTATTAGTTGAAGGGAAACCGACGAGTCCGTTT	0.214
TTACCAAGGTAAAGGTCGTTGATCCCTCTGTAGA	0.667
ACAGACAGGTGAGTGAAGGAAACTCAGCTGGACG	-0.967
TCGAGTAGGTTAGGGGTATTCAGAATGGCGTCGA	0.194
CGAACTAGGTCATCCAGGACAGCGAATACATTGA	2.24
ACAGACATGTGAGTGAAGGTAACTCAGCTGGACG	-0.488
ACTAGTTGGTCAGCTTAGGTCACACACAATTCGG	3.55
GCCACTGGGGCAAAGCAGGTTACCATAAGGTTGG	-0.169
GTTTGTAGATCAAGGTTAAGAAAGACTAAGCTAA	0.453
